Provenance of the data: PubChem BioAssay

# method-description: inhibitors of TNFa-induced NFkB p65 translocation, primary screen, imaging, HUVEC, MLSMR starter and 10KST1 sets (AID 438);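 note: compound added about 3h40 before a 20 min TNFalpha stimulation; signal is the nuclear over cytoplasmic p65 intensity ratio per well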
# test-settings: HUVEC TNFa-induced p65 nuclear translocation; at 2 µM, hits give high values unless noted
Calls of active or inactive are those of the source.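 Rule for the calls: active = inhibition above 20% together with a positive visual image hit; inconclusive = visual image hit but inhibition not above 20%; inactive = no visual image hit.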
observed-property: inhibition

Illustrative cases are given below, each with its answer.
| compound | observed-property | reading |
| --- | --- | --- |
| Cc1cnn(C2CCN(C)CC2)c1N | inhibition | -7.4% (inactive) |
| CCCCOCCCn1c(N)c(C(=O)OCCOC)c2nc3ccccc3nc21 | inhibition | -11.4% (inactive) |
| COC(=O)C(O)(c1ccc(NC(=O)c2ccco2)c(OC)c1)C(F)(F)F (centres undefined) | inhibition | 3.2% (inactive) |
| CCN(CC)CCCNC(=O)c1c(O)c2ccccc2n(Cc2ccccc2)c1=O | inhibition | -4.8% (inactive) |
| Cc1cc(C)c(C(=O)CN2CCOCC2)c(C)c1 | inhibition | 7.3% (inactive) |

Quick one: give me inhibition for each item below, same order please.
1. CCc1ccc(OCCCN=C(C)c2c(O)n(C)c(=O)n(C)c2=O)cc1
2. CN1CCN(c2c[nH]c(=O)[nH]c2=O)CC1
3. CCCCc1nc(N2CCNCC2)c(C#N)c2c1CSC(C)(C)C2
4. CC1CN=C(Nc2ccc(N(C)C)cc2)S1 (centres undefined)
5. CCOC(=O)C(O)(c1ccc(N(CC)C(=O)OC)cc1)C(F)(F)F (centres undefined)
6. CN(C)CCc1nc2ccccc2c(=O)n1-c1ccccc1
7. CC(=O)C1C(=O)NC23CCCCC2C1c1ccccc1O3 (centres undefined)

Output:
1: 0.2% (inactive); 2: 0% (inactive); 3: -12.8% (inactive); 4: 0.8% (inactive); 5: -6.1% (inactive); 6: -2.3% (inactive); 7: 3.3% (inactive)

Quick one: give me inhibition for each item below, same order please.
1. COc1cccc(-n2c(C)nc3ccccc3c2=O)c1
2. COc1ccc(CCn2c(O)c(C=NCCCN(C)C)c(=O)[nH]c2=O)cc1OC
3. COc1ccc(C2SCC(=O)Nc3c2c(=O)[nH]n3C2CCCCCC2)cc1 (centres undefined)
4. Cc1nn(-c2ccccc2)c2c1CC1(C(=O)N(C)C(=O)N(C)C1=O)C1CCCCN21 (centres undefined)
5. CCOc1ccc(-n2c(O)c(C=NCCN3CCNCC3)c(=O)[nH]c2=O)cc1
6. CN(C)CCc1nn[nH]n1

Output:
["7.1% (inactive)", "-1.6% (inactive)", "-7.2% (inactive)", "-14.2% (inactive)", "3.2% (inactive)", "-12.8% (inactive)"]
